assayed-target: muscarinic receptor (rat brain)
Construct: native receptors in particulate (40 000 g pellet) preparation of whole brain without cerebellum; subtype mixture not resolved
protocol-notes: [3H]NMS displacement, rat brain membranes, filtration
test-conditions: [3H]NMS 0.3 nM (0.5 nM in data analysis), 30 mM Na+/HEPES pH 7.5, 25 °C, 60 min; competitive
pIC50: −log10 of the molar value.
// thresholds for pIC50 classes: bucket 1 = under 5, bucket 2 = from 5 up to 7, bucket 3 = 7 and over

Input `CN(C)CCC=C1c2ccccc2CCc2ccccc21` ; output its category
bucket 3

Input OC(CCN1CCCCC1)(c1ccccc1)C1CC2C=CC1C2 (centres unmarked) ; output its category
bucket 3

Input `CCCC[C@H](C)C[C@H](O)/C=C/[C@H]1[C@H](O)CC(=O)[C@@H]1CCCC/C=C/C(=O)O` ; output its category
bucket 1

Input `CN(C)CCCN1c2ccccc2CCc2ccccc21` ; output its category
bucket 2

Input COc1cc(O)c(C(=O)Nc2nc(C(=O)NCCN(C(C)C)C(C)C)cs2)cc1OC [Acotiamide] ; output its category
bucket 1

* * *

assayed-target: muscarinic receptor (rat brain)
Construct: native receptors in particulate (40 000 g pellet) preparation of whole brain without cerebellum; subtype mixture not resolved
protocol-notes: [3H]NMS displacement, rat brain membranes, filtration
test-conditions: [3H]NMS 0.3 nM (0.5 nM in data analysis), 30 mM Na+/HEPES pH 7.5, 25 °C, 60 min; competitive
From the text: [3H]NMS displacement, rat brain membranes, filtration on muscarinic receptor (rat brain)
For each entry below, report its IC50 value.
One number for each entry, in µM.

C[N+]1(C)CCCC(OC(=O)C(O)(c2ccccc2)c2ccccc2)C1 (stereo not drawn) [Mepenzolate] : 0.00306

Kindly give each listed record's IC50.
1. CN(C)CCCN1c2ccccc2Sc2ccc(Cl)cc21
2. CCCOC(C(=O)OC1CCN(C)CC1)(c1ccccc1)c1ccccc1
3. Clc1ccc(C(OCCN2CCCCC2)c2ccccc2)cc1 (stereo not drawn)
4. Cn1c(=O)cc(N2CCC[C@@H](N)C2)n(Cc2ccccc2C#N)c1=O
5. OC(c1ccccc1)(c1ccccc1)C12CC[N+](CCOCc3ccccc3)(CC1)CC2
6. CN(CCCCCCN(C)C(=O)Oc1ccc[n+](C)c1)C(=O)Oc1ccc[n+](C)c1
7. CCc1ccc(C(=O)C(C)CN2CCCCC2)cc1 (stereo not drawn)
8. CN(C)CCOC1=Cc2ccccc2Sc2ccc(Cl)cc21 [Zotepine]

[0.376, 0.35, 0.0003, 81.5, 0.00015, 1.7, 0.902, 0.554]

Kindly give each listed record's IC50.
1. CNCCC=C1c2ccccc2CCc2ccccc21
2. OC(CCN1CCCCC1)(c1ccccc1)c1ccccc1
3. C[C@@H]1C[C@H]2[C@@H]3C[C@H](F)C4=CC(=O)C=C[C@]4(C)[C@@]3(F)[C@@H](O)C[C@]2(C)[C@@]1(OC(=O)c1ccco1)C(=O)SCF [Fluticasone furoate]

0.168
0.0536
18.2

Kindly give each listed record's IC50.
1. CC(CN(C)C)CN1c2ccccc2CCc2ccccc21 (stereo not drawn)
2. CC(C)COCC(CN(Cc1ccccc1)c1ccccc1)N1CCCC1 (stereo not drawn)
3. O=C(O[C@H]1CN2CCC1CC2)N1CCc2ccccc2[C@@H]1c1ccccc1
4. CC(C)(C)NCC(O)c1ccccc1Cl (stereo not drawn)

1. 0.099
2. 20.8
3. 0.00738
4. 71.9

Kindly give each listed record's IC50.
1. CCC(NC(C)C)C(O)c1ccc(O)c2[nH]c(=O)ccc12 (stereo not drawn)
2. COc1ccc(CC(C)NCC(O)c2ccc(O)c(NC=O)c2)cc1 (stereo not drawn)

3.9
14.3
